Ref: ChEMBL document CHEMBL1641476

Assay: Volume of distribution at steady state in iv dosed Long-Evans rat
Format: ADME, organism-based
Details: in vivo, read-out: Vdss
RESULT TYPE: Vd (L/kg)
Report only the number, with the unit L/kg understood.

Request the reported Vd associated with `NC(=O)c1ccc2c(c1)CCCN2c1ccc(CNCCC2=CCCCC2)cc1` 1.5

###

Molecular target: Delta-type opioid receptor (Homo sapiens, UniProt P41143)
Sequence (P41143 whole entry): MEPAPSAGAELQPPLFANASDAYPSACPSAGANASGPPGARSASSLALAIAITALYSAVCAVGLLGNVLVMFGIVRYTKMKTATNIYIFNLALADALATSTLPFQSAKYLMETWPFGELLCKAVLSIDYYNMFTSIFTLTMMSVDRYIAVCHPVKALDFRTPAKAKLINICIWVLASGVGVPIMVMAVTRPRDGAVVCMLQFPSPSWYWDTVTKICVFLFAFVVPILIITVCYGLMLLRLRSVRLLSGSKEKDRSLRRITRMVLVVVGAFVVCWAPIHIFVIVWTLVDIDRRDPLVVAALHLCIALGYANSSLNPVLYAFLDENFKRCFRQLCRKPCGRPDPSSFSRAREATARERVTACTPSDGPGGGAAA
Experiment: Antagonist activity at human delta opioid receptor expressed in CHO cells assessed as [35S]GTPgammaS binding by SPA
Format: functional, cell-based
RESULT TYPE: pKi
Keep it numeric: pKi is minus log10 of the concentration in mol/L.

Request the reported pKi associated with `NC(=O)c1ccc2c(c1)CCCN2c1cc(F)c(CNC2Cc3ccccc3C2)c(F)c1` 6.50

Request the reported pKi associated with `CCCCCNCc1ccc(N2CCCc3cc(C(N)=O)ccc32)cc1` 6.60

Request the reported pKi associated with `NC(=O)c1ccc2c(c1)CCCN2c1ccc(CNCc2cccc(F)c2)cc1` 6.40

Request the reported pKi associated with `Cc1cc(CNCCC2=CCCCC2)ccc1N1CCCc2cc(C(N)=O)ccc21` 7.00

Request the reported pKi associated with `NC(=O)c1ccc2c(c1)CCCN2c1ccc(CNC2Cc3ccccc3C2)cc1` 7.40

Request the reported pKi associated with `NC(=O)c1ccc2c(c1)CCCN2c1ccc(CNC2Cc3ccccc3C2)c(C(F)(F)F)c1` 7.20

Request the reported pKi associated with `NC(=O)c1ccc2c(c1)CCCN2c1ccc(CNCCc2cccs2)cc1` 6.50

Request the reported pKi associated with `NC(=O)c1ccc2c(c1)CCCN2c1ccc(CNCCC2=CCCCC2)cc1` 6.80

Request the reported pKi associated with `CC(C)(C)CCNCc1ccc(N2CCCc3cc(C(N)=O)ccc32)cc1` 6.50

Request the reported pKi associated with `NC(=O)c1ccc2c(c1)CCCN2c1cccc(C(=O)NCCC2=CCCCC2)c1` 5.80

Request the reported pKi associated with `NC(=O)c1ccc2c(c1)CCCN2c1cccc(CNCCC2=CCCCC2)c1` 6.70

Request the reported pKi associated with NC(=O)c1ccc2c(c1)CCCN2c1ccc(CNC2Cc3ccc(F)cc3C2)cc1 (stereo unspecified) 7.10

Request the reported pKi associated with `NC(=O)c1ccc2c(c1)CCCN2c1ccc(CNCC2CCCCC2)cc1` 6.40
